// provenance: paper PMC9862186

# Assay overview: in vivo
# Setup conditions: male, Wistar, rat, in vivo, iv, 20 mg/kg
Listed below: Cmax values for each entry.
Numbers only here, please. The scale is ng/mL.

C=CCc1ccc(O)c(OC)c1 | 2790

Consider the additional compound presented here.
Please indicate Cmax recorded for O=C/C=C/c1ccccc1
2040

----------
# Assay overview: in vivo
# Setup conditions: male, Wistar, rat, in vivo, iv, kel: pseudo first order kinetic elimination rate constant, rat blood; iv 20 mg/kg (eugenol, cinnamaldehyde), 100 mg/kg (D-limonene); eugenol value terminal
Property measured: k el

Please indicate k el recorded for C=CCc1ccc(O)c(OC)c1
0.0006 s⁻¹

----------
# Assay overview: in vivo
# Setup conditions: Wistar, rat, po, F: absolute bioavailability, oral versus iv AUC normalized to dose
Property measured: bioavailability

Please indicate bioavailability recorded for C=CCc1ccc(O)c(OC)c1
4%

----------
# Assay overview: in vivo
# Setup conditions: male, Wistar, rat, in vivo, iv, Cl: clearance
Property measured: clearance (mL/min/kg)
Numbers only here, please. The scale is mL/min/kg.

Please indicate clearance recorded for C=C(C)[C@H]1CC=C(C)CC1 [D-Limonene, D-limonene]
284

----------
# Assay overview: in vivo
# Setup conditions: male, Wistar, rat, in vivo, iv, 20 mg/kg
Property measured: concentration at 10 min (ng/mL)
Numbers only here, please. The scale is ng/mL.

Please indicate concentration at 10 min recorded for C=CCc1ccc(O)c(OC)c1 [Eugenol]
2900

----------
# Assay overview: in vivo
# Setup conditions: male, Wistar, rat, in vivo, iv, 20 mg/kg
Property measured: concentration at 5 min
Hey, just the number and the unit after it is fine.

Please indicate concentration at 5 min recorded for C=CCc1ccc(O)c(OC)c1
3.6 µg/mL

----------
# Assay overview: in vivo
# Setup conditions: male, Wistar, rat, in vivo, iv, R: ratio of concentration between CSF and bloodstream at Tmax
Property measured: Kp at 10 min

C=C(C)[C@H]1CC=C(C)CC1 [D-Limonene, D-limonene] | 0

Please indicate Kp at 10 min recorded for C=CCc1ccc(O)c(OC)c1 [Eugenol]
0.96

----------
# Assay overview: in vivo
# Setup conditions: male, Wistar, rat, in vivo, iv, R: ratio of concentration between CSF and bloodstream at Tmax, rat; iv; 10 min from the end of infusion
Property measured: Kp at 10 min
// keep it numeric: no unit symbol after the value

Please indicate Kp at 10 min recorded for O=C/C=C/c1ccccc1 [Cinnamaldehyde, cinnamaldehyde]
0.156

----------
# Assay overview: in vivo
# Setup conditions: male, Wistar, rat, in vivo, iv
Property measured: AUC (ng·h/mL)
Numbers only here, please. The scale is ng·h/mL.

Please indicate AUC recorded for O=C/C=C/c1ccccc1
1610
